So I've got pIC50 readings for PDE10A (Homo sapiens), take a look.
pIC50 is defined as minus the log10 of a concentration measured in mol/L.

Notebook: CCOC(=O)c1c(-c2ccc(O)c3ncccc23)c(C)n2c1-c1cc(OC)c(OC)cc1CC2 , pIC50 read as 7.52

Attention now shifts to the item below.
Notebook: CCOC(=O)c1c(-c2ccc(OC)cc2OC)c(C)n2c1-c1cc(OC)c(OC)cc1CC2 , pIC50 read as 7.49

* * *

So I've got pIC50 readings for UniProtKB Q14432, take a look.
Sequence (Q14432 whole entry, species assumed): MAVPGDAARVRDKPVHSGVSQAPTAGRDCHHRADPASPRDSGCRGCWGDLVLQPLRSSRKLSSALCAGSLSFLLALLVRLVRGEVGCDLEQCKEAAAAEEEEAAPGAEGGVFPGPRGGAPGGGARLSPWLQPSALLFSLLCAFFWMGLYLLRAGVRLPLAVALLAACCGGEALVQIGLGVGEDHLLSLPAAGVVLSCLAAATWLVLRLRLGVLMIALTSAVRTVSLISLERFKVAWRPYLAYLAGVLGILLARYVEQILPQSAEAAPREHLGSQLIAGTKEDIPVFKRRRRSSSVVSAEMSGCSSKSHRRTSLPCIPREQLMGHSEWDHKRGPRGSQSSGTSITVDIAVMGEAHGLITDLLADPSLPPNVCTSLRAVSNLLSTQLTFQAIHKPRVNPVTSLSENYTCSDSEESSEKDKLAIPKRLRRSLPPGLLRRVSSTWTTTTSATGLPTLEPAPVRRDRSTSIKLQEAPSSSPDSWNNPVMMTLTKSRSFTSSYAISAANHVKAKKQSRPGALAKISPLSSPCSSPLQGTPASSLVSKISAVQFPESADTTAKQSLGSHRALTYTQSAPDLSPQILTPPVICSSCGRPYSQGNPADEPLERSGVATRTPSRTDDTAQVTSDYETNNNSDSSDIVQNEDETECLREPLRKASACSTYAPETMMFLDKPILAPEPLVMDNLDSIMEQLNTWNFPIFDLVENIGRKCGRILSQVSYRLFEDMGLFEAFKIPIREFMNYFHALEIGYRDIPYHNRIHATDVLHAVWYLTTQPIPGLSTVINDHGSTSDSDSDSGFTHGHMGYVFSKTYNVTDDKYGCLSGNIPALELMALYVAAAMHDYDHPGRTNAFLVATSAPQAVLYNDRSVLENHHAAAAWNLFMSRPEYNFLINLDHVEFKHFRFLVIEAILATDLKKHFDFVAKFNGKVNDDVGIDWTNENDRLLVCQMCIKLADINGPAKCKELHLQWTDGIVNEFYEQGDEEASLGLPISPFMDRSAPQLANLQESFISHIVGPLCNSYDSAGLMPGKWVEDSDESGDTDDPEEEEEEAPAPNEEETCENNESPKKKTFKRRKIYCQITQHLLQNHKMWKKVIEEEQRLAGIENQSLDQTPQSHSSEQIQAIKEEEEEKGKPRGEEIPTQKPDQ
pIC50: −log10 of the molar value.

CCOC(=O)c1c(-c2ccc(OC)c(OC)c2)c(C)n2c1-c1cc(OC)c(OC)cc1CC2 on UniProtKB Q14432 gives pIC50 = < 5.00

Attention now shifts to the item below.
CCOC(=O)c1c(-c2ccc(O)c3ncccc23)c(C)n2c1-c1cc(OC)c(OC)cc1CC2 on UniProtKB Q14432 gives pIC50 = < 5.00
